These data points were gathered from patent US4613598A.

- Tested on: spontaneous hypertensive rats
- assay: Hypotensive activity in non-narcotized, heart-catheterized spontaneous hypertensive rats
- Type: in vivo
- run-parameters: Rattus norvegicus, oral, dose 3 mg/kg, lowest blood pressure during 6 hours after administration, read-out: Hypotensive ratio
Reported values of inhibition in vivo at 3 mg/kg for individual entries
Numbers only here, please. The scale is %.

Below: 2 molecules and their reported inhibition in vivo at 3 mg/kg.
molecule | unit | inhibition in vivo at 3 mg/kg
COc1ccccc1N1CCN(CCCCC(=O)c2ccc(SC)c(S(N)(=O)=O)c2)CC1 | % | 24.3
COc1ccccc1N1CCN(CCCCC(=O)c2ccc3c(c2)NC(=O)CCO3)CC1 | % | 35.6

Kindly review the next molecule as well.
Task: Can you share its inhibition in vivo at 3 mg/kg? I mean this molecule: COc1ccc(C(O)CN2CCN(c3ccccc3)CC2)cc1NC(N)=O (stereo not drawn) [Control 3, reference compound]
Result: 5.6

----------
Entries and their inhibition in vivo at 3 mg/kg
- System: spontaneous hypertensive rats
- assay: Hypotensive activity in non-narcotized, heart-catheterized spontaneous hypertensive rats
- Format: in vivo
- run-parameters: Rattus norvegicus, oral, dose 3 mg/kg, lowest blood pressure during 6 hours after administration, read-out: Hypotensive ratio
Where a name gives a salt, the structure may show the parent alone.
Write the answer as a number in %, unit excluded.

Would you please look over these solved cases?
compound | inhibition in vivo at 3 mg/kg, %
O=C(O)c1cc(C(O)CCCCN2CCN(c3ccccn3)CC2)ccc1O (stereo not shown) [Compound No. 17] | 21.1
COc1ccc(C(=O)CCCCN2CCN(c3ccccc3OC)CC2)cc1NS(C)(=O)=O [Compound No. 29, dihydrochloride] | 37.3
NC(=O)c1cc(C(=O)CCCCN2CCN(c3ccccc3Cl)CC2)ccc1O [Compound No. 13] | 19.7

Task: Need inhibition in vivo at 3 mg/kg of COc1ccccc1N1CCN(CCCCC(=O)c2ccc(O)c(NC(C)=O)c2)CC1 [Compound No. 23] , thanks.
Result: 36.5

----------
- Tested on: spontaneous hypertensive rats
- assay: Hypotensive activity in non-narcotized, heart-catheterized spontaneous hypertensive rats
- Format: in vivo
- run-parameters: Rattus norvegicus, oral, dose 3 mg/kg, lowest blood pressure during 6 hours after administration, read-out: Hypotensive ratio
Structures can show the parent of a compound that is named as a salt.
measure-name: inhibition in vivo at 3 mg/kg (%)
Express the result in % but write the number alone.

compound | measure-name | assay-result
COc1ccccc1N1CCN(CCCCC(=O)c2ccc(SC)c(NC(N)=O)c2)CC1 | inhibition in vivo at 3 mg/kg | 28.9
COc1ccccc1N1CCN(CCCCC(=O)c2ccc(OC)c(S(N)(=O)=O)c2)CC1 [Compound No. 2, dihydrochloride] | inhibition in vivo at 3 mg/kg | 19.7
COc1ccccc1N1CCN(CCCCC(=O)c2ccc([S+](C)[O-])c(NC(N)=O)c2)CC1 (centres unmarked) | inhibition in vivo at 3 mg/kg | 25.6
O=C1CSc2ccc(C(=O)CCCN3CCN(c4ccccn4)CC3)cc2N1 | inhibition in vivo at 3 mg/kg | 45.7
COc1ccccc1N1CCN(CCCCC(=O)c2ccc(O)c(C(N)=O)c2)CC1 | inhibition in vivo at 3 mg/kg | 35.2

Task: Request: inhibition in vivo at 3 mg/kg, test system spontaneous hypertensive rats, entry NC(=O)c1cc(C(=O)CN2CCN(c3ccccc3)CC2)ccc1O [Control 2, reference compound]
Result: 13.7

Task: Record COc1ccc(C(=O)CCCCN2CCN(c3ccccc3OC)CC2)cc1NC(N)=O : what is its inhibition in vivo at 3 mg/kg with spontaneous hypertensive rats?
Result: 31.8

Task: API: value(readout=inhibition in vivo at 3 mg/kg, system=spontaneous hypertensive rats) for record COc1ccccc1N1CCN(CCCCC(=O)c2ccc([S+](C)[O-])c(S(N)(=O)=O)c2)CC1 (centres unmarked)
Result: 17.5
